MEASURED ON: Cyclin-dependent kinase 12 (Homo sapiens)
Sequence (Q9NYV4 whole entry, looked up): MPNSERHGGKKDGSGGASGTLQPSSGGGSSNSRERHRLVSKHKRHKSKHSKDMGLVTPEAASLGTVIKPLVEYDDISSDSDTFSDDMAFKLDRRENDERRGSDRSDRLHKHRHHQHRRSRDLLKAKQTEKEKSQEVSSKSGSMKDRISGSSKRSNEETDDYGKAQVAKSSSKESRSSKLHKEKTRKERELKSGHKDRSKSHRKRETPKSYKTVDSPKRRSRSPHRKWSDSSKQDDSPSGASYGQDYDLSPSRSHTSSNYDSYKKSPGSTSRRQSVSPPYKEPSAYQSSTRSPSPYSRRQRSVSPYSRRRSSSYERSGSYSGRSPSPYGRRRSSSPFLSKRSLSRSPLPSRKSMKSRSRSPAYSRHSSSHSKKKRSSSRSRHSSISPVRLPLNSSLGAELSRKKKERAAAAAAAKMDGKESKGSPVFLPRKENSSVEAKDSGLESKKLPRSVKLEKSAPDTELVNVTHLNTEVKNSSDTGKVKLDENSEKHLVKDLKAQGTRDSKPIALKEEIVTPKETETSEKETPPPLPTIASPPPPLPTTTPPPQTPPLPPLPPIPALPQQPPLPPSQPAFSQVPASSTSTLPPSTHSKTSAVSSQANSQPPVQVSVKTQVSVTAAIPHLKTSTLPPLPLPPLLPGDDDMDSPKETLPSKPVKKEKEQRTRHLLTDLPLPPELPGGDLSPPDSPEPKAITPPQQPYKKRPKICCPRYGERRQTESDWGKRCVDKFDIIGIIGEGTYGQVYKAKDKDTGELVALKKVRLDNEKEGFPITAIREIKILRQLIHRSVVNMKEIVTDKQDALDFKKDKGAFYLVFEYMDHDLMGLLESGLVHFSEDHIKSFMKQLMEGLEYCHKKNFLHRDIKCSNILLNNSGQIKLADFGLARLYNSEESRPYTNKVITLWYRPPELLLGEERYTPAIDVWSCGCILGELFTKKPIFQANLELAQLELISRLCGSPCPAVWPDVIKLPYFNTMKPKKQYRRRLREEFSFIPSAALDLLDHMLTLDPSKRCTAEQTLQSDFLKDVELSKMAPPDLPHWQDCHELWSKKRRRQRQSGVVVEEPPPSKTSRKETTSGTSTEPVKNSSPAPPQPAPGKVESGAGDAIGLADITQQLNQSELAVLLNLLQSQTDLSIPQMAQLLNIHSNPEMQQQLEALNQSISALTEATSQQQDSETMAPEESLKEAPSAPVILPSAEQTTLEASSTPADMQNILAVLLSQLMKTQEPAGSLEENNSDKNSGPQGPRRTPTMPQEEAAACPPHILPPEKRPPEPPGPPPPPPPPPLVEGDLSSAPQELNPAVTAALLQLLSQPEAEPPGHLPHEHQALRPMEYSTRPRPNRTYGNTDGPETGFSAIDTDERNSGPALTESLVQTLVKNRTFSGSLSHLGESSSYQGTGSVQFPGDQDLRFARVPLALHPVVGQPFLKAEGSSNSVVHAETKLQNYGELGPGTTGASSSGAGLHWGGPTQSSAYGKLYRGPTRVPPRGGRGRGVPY
PROTOCOL NOTES: Inhibition of CDK12 (unknown origin) at 1 uM in presence of ATP by kinase-glo plus luminescent assay relative to control
MEASURED ATTRIBUTE: inhibition (%)

- SMILES STR: "NC(=O)c1cccc2[nH]c(NC(=O)c3ccc(C(=O)N4CCC(Nc5ncccn5)CC4)cc3)nc12"
  MEASURED ATTRIBUTE: "inhibition"
  ASSAY RESULT: 32.4

1 = NC(=O)c1cccc2[nH]c(NC(=O)c3cccc(C(=O)N4CCC(Nc5ncc(Cl)cn5)CC4)c3)nc12
2 = NC(=O)c1cccc2[nH]c(NC(=O)c3cccc(C(=O)N4CCC(Nc5ccc(I)cn5)CC4)c3)nc12
3 = N#Cc1ccc(NC2CCN(C(=O)c3ccc(C(=O)Nc4nc5c(C(N)=O)cccc5[nH]4)cc3)CC2)nc1
Ask: List items by inhibition in falling order. Would you mind listing the labels in the order requested?
Result: 1, 2, 3
(1: 68.3%, 2: 30.1%, 3: 13.3%)

* * *

MEASURED ON: Cyclin-dependent kinase 12 (Homo sapiens)
PROTOCOL NOTES: Inhibition of CDK12 (unknown origin) at 1 uM in presence of ATP by kinase-glo plus luminescent assay relative to control
MEASURED ATTRIBUTE: inhibition (%)

- SMILES STR: "NC(=O)c1cccc2[nH]c(NC(=O)c3ccc(C(=O)N4CCC(Nc5ncc(I)cn5)CC4)cc3)nc12"
  MEASURED ON: "Cyclin-dependent kinase 12 (Homo sapiens)"
  inhibition [%]: 61.7
- SMILES STR: "N#Cc1cnc(NC2CCN(C(=O)c3cccc(C(=O)Nc4nc5c(C(N)=O)cccc5[nH]4)c3)CC2)nc1"
  MEASURED ON: "Cyclin-dependent kinase 12 (Homo sapiens)"
  inhibition [%]: 21.7
- SMILES STR: "NC(=O)c1cccc2[nH]c(NC(=O)c3ccc(C(=O)N4CCC(Nc5ccc(C(F)(F)F)cn5)CC4)cc3)nc12"
  MEASURED ON: "Cyclin-dependent kinase 12 (Homo sapiens)"
  inhibition [%]: 26.7
- SMILES STR: "CCc1cnc(NC2CCN(C(=O)c3ccc(C(=O)Nc4nc5c(C(N)=O)cccc5[nH]4)cc3)CC2)nc1"
  MEASURED ON: "Cyclin-dependent kinase 12 (Homo sapiens)"
  inhibition [%]: 44.1

1 = NC(=O)c1cccc2[nH]c(NC(=O)c3cccc(C(=O)N4CCC(Nc5ccc(Br)cn5)CC4)c3)nc12
2 = NC(=O)c1cccc2[nH]c(NC(=O)c3ccc(C(=O)N4CCN(c5ccc(C(F)(F)F)cn5)CC4)cc3)nc12
3 = NC(=O)c1cccc2[nH]c(NC(=O)c3cccc(C(=O)N4CCC(Nc5ncc(Br)cn5)CC4)c3)nc12
4 = NC(=O)c1cccc2[nH]c(NC(=O)c3ccc(C(=O)N4CCC(Nc5nccc(C(F)(F)F)n5)CC4)cc3)nc12
Ask: List items by inhibition in falling order. Would you mind listing the labels in the order requested?
Result: 3, 2, 1, 4
(3: 75.4%, 2: 39.8%, 1: 25.6%, 4: 16.8%)

* * *

PROTOCOL NOTES: Tmax in Sprague-Dawley rat at 1 mg/kg, iv measured upto 24 hrs by LC-MS/MS analysis
Format: ADME, organism-based
TEST SETTINGS: in vivo
MEASURED ATTRIBUTE: Tmax (min)
// units = min; emit number, no label

Ask: Answer with the recorded Tmax of NC(=O)c1cccc2[nH]c(NC(=O)c3cccc(C(=O)N4CCC(Nc5ncc(I)cn5)CC4)c3)nc12 only.
Result: 4.8
